# credit: the METLIN SMRT retention time set (Domingo-Almenara et al. 2019)

Test: gradient 5% acetonitrile 3 min, to 50% in 2 min, to 85% in 15 min, held 3 min, 100 µL/min
Conditions: column: Zorbax Extend-C18 2.1 x 50 mm; eluents: water / acetonitrile, 0.1% formic acid
Where RP-LC retention time equals or exceeds 900 s, the correct label is Met; where it does not, the label is Not met.

As a guide, the following entries are already answered.
MOLECULE	DISCRETE LABEL
CCS(=O)(=O)N1C[C@@H](COc2ccncc2)[C@H](c2ccccn2)C1	Not met
COc1cc(NC(=O)CSc2nccc(N3CCN(c4cccc(OC)c4)CC3)n2)cc(OC)c1	Not met
CCOc1ccc(C2Cn3nnc(-c4nc(-c5cccc(Br)c5)no4)c3CO2)cc1 (stereo not given)	Met
Cc1nc(N2CCN(C)CC2)cc(N2CCN(C(=O)c3ccc(Br)o3)CC2)n1	Not met
CCOc1ccccc1-c1noc(Cn2c(=O)n(Cc3ccc(F)cc3)c(=O)c3sccc32)n1	Met
Cc1cc(C)n(-c2cc(NCc3ccccn3)ncn2)n1	Not met

Determine whether this molecule has RP-LC retention time no lower than 900 s: Cc1sc(-c2noc(C3CC3)n2)cc1S(=O)(=O)N1CCC(C(=O)NCc2cccs2)CC1
Met

Could you please find out whether CCOc1cc(=O)n2c(c1C(=O)N1CCOCC1)CCCCC2 has RP-LC retention time that meets 900 s or exceeds it?
Not met

Quick check: does CC(C)n1ccnc(N2CCOCC2)c1=O have RP-LC retention time greater than or equal to 900 s?
Not met

###

Measured RP-LC retention time accompanies every entry in the list below.
Experiment: gradient 5% acetonitrile 3 min, to 50% in 2 min, to 85% in 15 min, held 3 min, 100 µL/min
Conditions: column: Zorbax Extend-C18 2.1 x 50 mm; eluents: water / acetonitrile, 0.1% formic acid
A number alone suffices; assume s.

Example entries begin here.
MOLECULE	OUTCOME MEASURE	RESULT UNITS	MEASURED NUMBER
COc1cccc(-c2nc(-c3ccc(-n4ccnc4)nc3)no2)c1	RP-LC retention time	s	736
COc1ccccc1N1CCN(c2cc(SCC(=O)Nc3c(C)cccc3C)ncn2)CC1	RP-LC retention time	s	958
O=C(Cn1ccnc1-c1ccnc(N2CCCC2)c1)NCc1ccccc1Cl	RP-LC retention time	s	606
Cc1cc(C)n(-c2ccnc(N3CCC(C(=O)NCCc4cccs4)CC3)n2)n1	RP-LC retention time	s	843
COCCOCc1nc(C2CCN(S(=O)(=O)c3ccc(OC)cc3)C2)no1 (centres undefined)	RP-LC retention time	s	791

The reported value for Cn1cc(-c2nc(C(=O)NCc3cc(F)cc(F)c3)cs2)c2cccnc21 in terms of RP-LC retention time is 944

Record summary for CC1CN=C2C=C(N3CCN(C(=O)Nc4ccc(Cl)cc4F)CC3)N=CN21 (centres undefined) : reported RP-LC retention time = 630

// recorded RP-LC retention time for CCc1nc2cc(-c3noc(-c4ccc(OC)cc4OC)n3)ccc2o1 : 1080

Recorded result, O=C(NCc1csc(-c2cccs2)n1)C1CCN(C(=O)c2cccc(F)c2)CC1 , RP-LC retention time: 772

###

Assay: gradient 5% acetonitrile 3 min, to 50% in 2 min, to 85% in 15 min, held 3 min, 100 µL/min
Conditions: column: Zorbax Extend-C18 2.1 x 50 mm; eluents: water / acetonitrile, 0.1% formic acid
Please enter rule met where RP-LC retention time is greater than or equal to 900 s, and rule not met where it is lower.

For this compound, is measured RP-LC retention time 900 s or higher? Cc1nccn1-c1ccc(=O)n(CCNC(=O)c2cccc(C(F)(F)F)c2)n1
rule not met

Quick check: does CCc1noc(-c2ccnc(-n3cnc(C(=O)NCC(C)C)c3)c2)n1 have RP-LC retention time greater than or equal to 900 s?
rule met
